Form field: IC50 (one value per entry).
target: UniProt:P29274; assay: Radioligand binding to hA2a membrane with [3H]-CGS21680; conditions: Binding Affinity (IC50 nM) hA2a
Sequence (P29274 whole entry): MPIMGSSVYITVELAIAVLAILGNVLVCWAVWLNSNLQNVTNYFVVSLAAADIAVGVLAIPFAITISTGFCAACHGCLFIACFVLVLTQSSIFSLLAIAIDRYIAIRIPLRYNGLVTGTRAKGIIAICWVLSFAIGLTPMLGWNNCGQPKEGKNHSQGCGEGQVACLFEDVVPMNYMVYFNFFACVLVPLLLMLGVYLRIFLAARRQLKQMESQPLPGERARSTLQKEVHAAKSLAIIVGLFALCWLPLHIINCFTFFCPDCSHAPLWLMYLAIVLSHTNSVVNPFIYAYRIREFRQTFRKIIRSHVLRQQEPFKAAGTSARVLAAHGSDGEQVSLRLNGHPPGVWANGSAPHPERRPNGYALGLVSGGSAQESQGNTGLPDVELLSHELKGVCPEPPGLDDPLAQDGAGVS
measureName: IC50 (nM)

• Cc1cnc2ccc(-c3nc(C(=O)NCC4CCO4)c(N)nc3-c3ncco3)cn12 (single isomer, unassigned) [Example 134] = 5.5
• Cc1cnc2ccc(-c3nc(C(=O)NCC4CCO4)c(N)nc3-c3ncco3)cn12 (single isomer, unassigned) [Example 135] = 2
• CC(NC(=O)c1nc(-c2ccc(=O)n(C)c2)c(-c2ncco2)nc1N)c1c(F)cccc1F (single isomer, unassigned) [Example 40] = 5.2
